meta.source: ChEMBL document CHEMBL5260850

# ASSAY_OVERVIEW: Cmax in dog at 75 mg/kg/day, po QD for 4 days
# Format: ADME, organism-based, Canis lupus familiaris
# Design: dose 75 mg/kg/day, time 4 day, route po
# CONDITION: in vivo
OUTCOME_MEASURE: Cmax
Your reply should be a number followed by the unit it is expressed in.

Could you share which Cmax value was measured for CC(C)(O)[C@H]1CC[C@H](NC(=O)c2cnc3nc(C4CC4)ccc3c2)CC1 ?
210 µg/mL

----------
# ASSAY_OVERVIEW: Clearance in rat at 0.4 mg/kg, iv
# Type: ADME, organism-based
# CONDITION: in vivo
OUTCOME_MEASURE: clearance

Field request: clearance | item: CC(C)(O)[C@H]1CC[C@H](NC(=O)c2cnc3nc(C4CC4)ccc3c2)CC1
4.5 mL/min/kg

----------
# ASSAY_OVERVIEW: AUC in Wistar Han rat at 10 mg/kg/day, po QD for 7 days
# Assay type: ADME, organism-based
# Set-up: dose 10 mg/kg/day, time 7 day, route po
# CONDITION: in vivo
OUTCOME_MEASURE: AUC at 168 h (µg·h/mL)
Write down the numeric answer in µg·h/mL and omit the unit.

So what's the measured AUC at 168 h for this one? CC(C)(O)[C@H]1CC[C@H](NC(=O)c2cnc3nc(C4CC4)ccc3c2)CC1
120

----------
Listed below: half-life values for each entry.
# ASSAY_OVERVIEW: Terminal half life in mouse at 1 mg/kg, iv
# Assay type: ADME, organism-based
# CONDITION: in vivo, read-out: beta t1/2 (converted)

STRUCTURE_STRING | half-life
CC(C)(O)[C@H]1CC[C@H](NC(=O)c2cnc3cc(C4CC4)ncc3c2)CC1 | 1.1 h

Now look at this one.
// returns reported half-life for input CC(C)(O)[C@H]1CC[C@H](NC(=O)c2cnc3nc(C4CC4)ccc3c2)CC1
2.9 h

----------
# ASSAY_TARGET: Cytochrome P450 3A4 (Homo sapiens, UniProt P08684)
# Sequence (P08684 whole entry): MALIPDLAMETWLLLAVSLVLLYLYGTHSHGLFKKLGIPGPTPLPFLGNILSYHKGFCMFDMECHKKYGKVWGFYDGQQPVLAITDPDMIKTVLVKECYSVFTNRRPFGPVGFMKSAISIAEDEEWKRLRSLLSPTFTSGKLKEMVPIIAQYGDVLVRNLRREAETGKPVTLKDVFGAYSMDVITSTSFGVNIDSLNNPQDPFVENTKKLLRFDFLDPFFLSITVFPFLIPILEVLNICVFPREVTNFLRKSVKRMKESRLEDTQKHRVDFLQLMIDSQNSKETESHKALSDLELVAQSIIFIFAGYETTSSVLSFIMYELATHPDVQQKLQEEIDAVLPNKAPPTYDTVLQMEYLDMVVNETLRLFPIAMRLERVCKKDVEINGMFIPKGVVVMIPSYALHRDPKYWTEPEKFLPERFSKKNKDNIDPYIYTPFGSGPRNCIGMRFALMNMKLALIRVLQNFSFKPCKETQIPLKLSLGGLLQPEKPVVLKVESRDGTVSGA
OUTCOME_MEASURE: IC50

Value lookup for IC50; key = CC(C)(O)[C@H]1CC[C@H](NC(=O)c2cnc3nc(C4CC4)ccc3c2)CC1
> 100 µM

----------
# ASSAY_OVERVIEW: AUC in dog at 10 mg/kg/day, po QD for 4 days
# Format: ADME, organism-based, Canis lupus familiaris
# Set-up: dose 10 mg/kg/day, time 4 day, route po
# CONDITION: in vivo
OUTCOME_MEASURE: AUC at 96 h
Mention the unit after the number when you answer.

Requested field: AUC at 96 h. Item: CC(C)(O)[C@H]1CC[C@H](NC(=O)c2cnc3nc(C4CC4)ccc3c2)CC1
120 µg·h/mL

----------
# ASSAY_OVERVIEW: Terminal half life in rat at 0.4 mg/kg, iv
# Assay type: ADME, organism-based
# CONDITION: in vivo, read-out: beta t1/2 (converted)
OUTCOME_MEASURE: half-life (h)
Answer with a number only, understood to be in h.

Reported half-life, compound CC(C)(O)[C@H]1CC[C@H](NC(=O)c2cnc3nc(C4CC4)ccc3c2)CC1 : ____
5.1

----------
# ASSAY_OVERVIEW: Cmax in eccentric contraction-induced muscle injury C57BL/6N mouse model administered orally for 10 mins prior to unilateral eccentric contraction and QD for 16 days thereafter
# Assay type: ADME
# Design: time 16 day, route po
# CONDITION: in vivo, po
OUTCOME_MEASURE: Cmax (ng/mL)
Note: unit ng/mL is implicit; provide only the numeric part.

Cmax lookup needed for CC(C)(O)[C@H]1CC[C@H](NC(=O)c2cnc3nc(C4CC4)ccc3c2)CC1 , thanks.
1700

----------
# ASSAY_TARGET: Hematopoietic prostaglandin D synthase (Rattus norvegicus, UniProt O35543)
# Sequence (O35543 whole entry): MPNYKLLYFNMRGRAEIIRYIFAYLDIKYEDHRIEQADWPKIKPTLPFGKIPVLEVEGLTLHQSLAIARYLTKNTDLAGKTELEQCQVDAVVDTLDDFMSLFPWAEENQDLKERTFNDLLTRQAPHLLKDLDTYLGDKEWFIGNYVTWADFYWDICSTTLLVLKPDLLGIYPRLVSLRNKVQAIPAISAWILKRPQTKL
# ASSAY_OVERVIEW: Inhibition of H-PGDS in rat RBL cells assessed as reduction in A23187-induced PGD2 production pretreated for 30 mins followed by A23187 addition for 30 mins by RapidFire Mass spectrometry
# Type: cell-based
OUTCOME_MEASURE: EC50 (nM)
Lab book: enter the figure in nM, no units written.

Example entries begin here.
STRUCTURE_STRING | MEASURED_RESULT
C[C@]1(O)C[C@@H](NC(=O)c2cnc3nc(C4CC4)ccc3c2)C1 | 1300
CC(C)(O)[C@H]1C[C@H](NC(=O)c2cnc3cc(C4CC4)ncc3c2)C1 | 280
CC(C)(O)[C@H]1CC[C@H](NC(=O)c2cnc3nc(NCC(F)F)ccc3c2)CC1 | 12000
COc1ccc2c(c1)N=CN(C(=O)N[C@H]1CC[C@H](C(C)(C)O)CC1)C2 | 4300
C[C@]1(O)C[C@@H](NC(=O)c2cnc3nc(N4CCC4)ccc3c2)C1 | 17000

Could you now consider this next molecule?
Name the reported EC50 value associated with the molecule CC(C)(O)[C@H]1CC[C@H](NC(=O)c2cnc3cc(OC(F)F)ccc3c2)CC1
160

----------
# ASSAY_TARGET: Albumin (Homo sapiens, UniProt P02768)
# Sequence (P02768 whole entry): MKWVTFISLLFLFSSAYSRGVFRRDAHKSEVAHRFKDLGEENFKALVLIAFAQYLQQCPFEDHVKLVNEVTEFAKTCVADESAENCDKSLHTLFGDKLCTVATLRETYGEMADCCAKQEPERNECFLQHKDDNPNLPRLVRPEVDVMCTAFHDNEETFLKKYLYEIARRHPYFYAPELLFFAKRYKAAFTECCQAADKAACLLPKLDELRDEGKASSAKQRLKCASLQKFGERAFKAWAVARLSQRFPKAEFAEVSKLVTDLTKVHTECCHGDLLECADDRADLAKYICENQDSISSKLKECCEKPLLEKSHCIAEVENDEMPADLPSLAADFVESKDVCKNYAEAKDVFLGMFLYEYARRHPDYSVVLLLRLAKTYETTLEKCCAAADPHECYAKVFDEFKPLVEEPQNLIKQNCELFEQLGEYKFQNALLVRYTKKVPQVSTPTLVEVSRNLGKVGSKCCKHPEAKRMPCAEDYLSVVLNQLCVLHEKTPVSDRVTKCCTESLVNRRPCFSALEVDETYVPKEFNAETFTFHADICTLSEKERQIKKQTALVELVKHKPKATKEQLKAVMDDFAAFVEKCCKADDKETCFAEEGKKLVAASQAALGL
# ASSAY_OVERVIEW: Protein binding in human serum albumin by HPLC analysis
# Type: ADME, cell-free
# CONDITION: read-out: PB (converted)
We label by threshold. Values of fraction unbound strictly beneath 0.2 are yes (1). Values of 0.2 and up are no (0).

Dear colleague, could you confirm whether fraction unbound of C[C@]1(O)C[C@@H](NC(=O)c2cnc3nc(C4CC4)c(Cl)cc3c2)C1 falls below 0.2? Thanks.
yes (1)

hey, is fraction unbound for C[C@]1(O)C[C@H](NC(=O)c2cnc3nc(C4CC4)c(Cl)cc3c2)C1 lower than 0.2 or not?
yes (1)

Confirm or reject: fraction unbound of CC(C)(O)[C@H]1CC[C@H](NC(=O)c2cnc3cc(N4CCC4)ncc3c2)CC1 lies strictly below 0.2
no (0)

A record lists O=C(N[C@H]1CCNC1=O)c1cnc2nc(C3CC3)c(Cl)cc2c1 . Is its fraction unbound below 0.2?
yes (1)

Please let me know if C[C@H]1CCN1c1nc2ncc(C(=O)N[C@H]3CC[C@](C)(O)CC3)cc2cc1Cl shows fraction unbound below 0.2.
yes (1)

Could you please tell me whether fraction unbound recorded for C[C@H]1CCN1c1cc2ncc(C(=O)N[C@H]3CCNC3=O)cc2cn1 is less than 0.2?
no (0)

----------
# ASSAY_OVERVIEW: AUC (0 to last) in mdx mouse administered orally 10 mins prior to unilateral eccentric contraction and QD for 43 days thereafter
# Assay type: ADME
# Design: time 43 day, route po
# CONDITION: in vivo, po
OUTCOME_MEASURE: AUC(0-t) at 1032 h

Find the recorded AUC(0-t) at 1032 h belonging to CC(C)(O)[C@H]1CC[C@H](NC(=O)c2cnc3nc(C4CC4)ccc3c2)CC1 and report it.
1100 ng·h/mL

----------
Item-by-item account of solubility at 4 h
# ASSAY_OVERVIEW: Solubility of the compound in FaSSIF at pH 6.5 measured after 4 hrs by HPLC-UV analysis
# Format: ADME
The reply should contain only the number, in µg/mL.

Reference set (3 entries):
STRUCTURE_STRING | solubility at 4 h (µg/mL)
CC(C)(O)[C@H]1C[C@H](NC(=O)c2cnc3cc(C4CC4)ncc3c2)C1 | 280
CC(C)(O)[C@H]1CC[C@H](NC(=O)c2cnc3cc(C4CC4)ncc3c2)CC1 | 27
C[C@H]1CCN1c1nc2ncc(C(=O)N[C@H]3CC[C@](C)(O)CC3)cc2cc1Cl | 740

// moving on: another record for solubility at 4 h
Given CC(C)(O)[C@H]1CC[C@H](NC(=O)c2cnc3nc(N4CCC4)ncc3c2)CC1 , state its recorded solubility at 4 h.
210

----------
# ASSAY_TARGET: Hematopoietic prostaglandin D synthase (Homo sapiens, UniProt O60760)
# Sequence (O60760 whole entry): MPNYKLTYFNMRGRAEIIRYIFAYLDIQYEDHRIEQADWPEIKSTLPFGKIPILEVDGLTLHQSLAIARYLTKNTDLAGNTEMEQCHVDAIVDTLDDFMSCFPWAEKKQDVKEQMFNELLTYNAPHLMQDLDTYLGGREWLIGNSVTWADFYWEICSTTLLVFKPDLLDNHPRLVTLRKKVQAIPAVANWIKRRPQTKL
# ASSAY_OVERVIEW: Binding affinity to human H-PGDS expressed in Escherichia coli BL21 DE3 cells assessed as equilibrium dissociation constant by measuring changes in intrinsic tryptophan fluorescence in presence of glutathione by fluorescence based analysis
OUTCOME_MEASURE: Kd (nM)
Answer in nM, number only, no unit symbol.

Suppose we examine the compound CC(C)(O)[C@H]1CC[C@H](NC(=O)c2cnc3nc(C4CC4)ccc3c2)CC1 ; what Kd value has been reported?
0.24

----------
# ASSAY_OVERVIEW: Cmax in Wistar Han rat at 100 mg/kg/day, po QD for 7 days
# Assay type: ADME, organism-based
# Design: dose 100 mg/kg/day, time 7 day, route po
# CONDITION: in vivo
OUTCOME_MEASURE: Cmax (µg/mL)
Report the figure in µg/mL without appending any unit label.

I'd like to know its Cmax. The compound in question is CC(C)(O)[C@H]1CC[C@H](NC(=O)c2cnc3nc(C4CC4)ccc3c2)CC1
57
